# test: Oral bioavailability in Han Wistar rat blood at 10 umol/kg
# Type: ADME, organism-based
# conditions.used: whole blood
assay.metric: bioavailability
I'd appreciate it if you included the unit after the number.

Requested field: bioavailability. Item: "CC(=O)N1CCC(n2cc(Nc3ncc(Cl)c(-c4cnn5ccccc45)n3)c(C)n2)CC1"
9%

====

# test: Intrinsic clearance in dog hepatocytes assessed per 10^6 cells
# Type: ADME, cell-based, Canis lupus familiaris, Hepatocyte
# conditions.used: read-out: CLH
Consider the following molecules; for each one, report its hepatocyte CLint.
Give bare numbers, in µL/min/1e6 cells.

Here are 3 molecules together with their reported answers.
CC(=O)N1CCC(n2nc(C)c(Nc3ncc(Cl)c(-c4cnn5ccccc45)n3)c2C)CC1 : 9.6
Cc1nn(C2CCN(C(=O)[C@@H](C)O)CC2)c(C)c1Nc1ncc(Cl)c(-c2cnn3ccccc23)n1 : 8.1
CC(=O)N1CCC(n2ncc(Nc3ncc(Cl)c(-c4cnn5ccccc45)n3)c2C)CC1 : 4.8

Query molecule follows.
Value lookup for hepatocyte CLint; key = "Cc1nn(C2CCN(C(=O)CO)CC2)c(C)c1Nc1ncc(Cl)c(-c2cnn3ccccc23)n1"
6.4

====

# test: Volume of distribution at steady state in Han Wistar rat blood at 2 or 4 umol/kg, iv or 10 umol/kg, po
# Assay type: ADME, organism-based
# conditions.used: whole blood, read-out: Vdss
assay.metric: Vd (L/kg)
One number for each entry, in L/kg.

Report Vd for "CC(=O)N1CCC(n2cc(Nc3ncc(Cl)c(-c4cnn5ccccc45)n3)c(C)n2)CC1" please.
1.6

====

Can you tell me bioavailability for the items I'm about to list?
# test: Oral bioavailability in Han Wistar rat plasma at 10 umol/kg
# Type: ADME, organism-based
Answers are plain numbers, in %.

Cc1nn(C2CCN(C(=O)[C@@H](C)O)CC2)c(C)c1Nc1ncc(Cl)c(-c2cnn3ccccc23)n1 : 58
Cc1nn(C2CCN(C(=O)CO)CC2)c(C)c1Nc1ncc(Cl)c(-c2cnn3ccccc23)n1 : 81
CC(=O)N1CCC(n2ncc(Nc3ncc(Cl)c(-c4cnn5ccccc45)n3)c2C)CC1 : 6

Now consider the entry below.
Record request: bioavailability value, item "CC(=O)N1CCC(n2nc(C)c(Nc3ncc(Cl)c(-c4cnn5ccccc45)n3)c2C)CC1"
61

====

# test: Fraction unbound in dog plasma by equilibrium dialysis
# Assay type: ADME, cell-free, Canis lupus familiaris
Can you tell me fraction unbound for the items I'm about to list?
Answers are plain numbers.

Worked cases, fraction unbound given:
CC(=O)N1CCC(n2ncc(Nc3ncc(Cl)c(-c4cnn5ccccc45)n3)c2C)CC1 : 0.081
Cc1nn(C2CCN(C(=O)CO)CC2)c(C)c1Nc1ncc(Cl)c(-c2cnn3ccccc23)n1 : 0.12
CC(=O)N1CCC(n2nc(C)c(Nc3ncc(Cl)c(-c4cnn5ccccc45)n3)c2C)CC1 : 0.12

Now look at this entry.
State the recorded fraction unbound for this entry: "Cc1nn(C2CCN(C(=O)[C@@H](C)O)CC2)c(C)c1Nc1ncc(Cl)c(-c2cnn3ccccc23)n1"
0.12

====

# test: Octanol-buffer partition co-efficient, log D of the compound at pH 7.4 by shake-flask method
# Format: physicochemical
Values of logD greater than or equal to 3 map to t; values below map to f.

Quick check, logD >= 3? "Cc1nn(C2CCN(C(=O)[C@@H](C)N)CC2)c(C)c1Nc1ncc(Cl)c(-c2cnn3ccccc23)n1"
f

Please check the record "CCc1nn(C2CCN(C(C)=O)CC2)cc1Nc1ncc(Cl)c(-c2cnn3ccccc23)n1" and state if its logD is at or above 3.
t

Identify whether the reported logD of the following compound is 3 or greater: "COCC(=O)N1CCC(n2nc(C)c(Nc3ncc(Cl)c(-c4cnn5ccccc45)n3)c2C)CC1"
f

Check the entry "Cc1c(Nc2ncc(Cl)c(-c3cnc4ccccn34)n2)cnn1C1CCNCC1" : does logD equal or exceed 3?
f

In plain terms: is recorded logD at least 3 for "Cc1nn(C2CCN(CC(=O)N(C)C)CC2)c(C)c1Nc1ncc(Cl)c(-c2cnn3ccccc23)n1" ?
f

In plain terms: is recorded logD at least 3 for "CC(=O)N1CCC(n2nc(C)c(Nc3ncc(Cl)c(-c4cnn5ccccc45)n3)c2C)CC1" ?
t

Please tell me: is the compound "CC(=O)N1CCC(n2nc(C)c(Nc3ncc(Cl)c(-c4cnc5ccccn45)n3)c2C)CC1" at or over 3 in terms of logD?
f

Hello, I need to know if "CC(=O)N1CCC(n2cc(Nc3ncc(Cl)c(-c4cnn5ccccc45)n3)c(C)n2)CC1" has measured logD not below 3. Thanks!
t

Does the reported logD for "Cc1nn(C2CCNCC2)c(C)c1Nc1ncc(Cl)c(-c2cnn3ccccc23)n1" fall at or above the 3 mark?
f
